Test system: HCV (Ib) RNA replication
Assay Protocol: Cell-based luciferase reporter HCV (1b) RNA replication assay (replicon cell lines Huh-7 5.2 and ET)
Design: species or system Hepatitis C virus
Measurement Conditions: Hepatitis C virus, Huh-7, 96 h, HCV 1b genotype replicon, luciferase readout, 4 days incubation; read-out: EC50_1b
pEC50: −log10 of the molar value.
Reported Endpoint: pEC50

- COC(=O)NC(C(=O)N1CCC[C@H]1c1nc2ccc(-c3cnc(-c4cnc(-c5ccc6nc([C@@H]7CCCN7C(=O)[C@@H](NC(=O)OC)C(C)C)[nH]c6c5)n4C)n3C)cc2[nH]1)C(C)C (stereo partly drawn): ≥ 8.30
- CC(C)(C)OC(=O)N1CCN(C(=O)OCc2ccccc2)[C@H](c2nc3cc(C#Cc4ccc5[nH]c([C@@H]6CCCCN6C(=O)OCc6ccccc6)nc5c4)ccc3[nH]2)C1: 5.30 to 8.30
- COC(=O)N[C@H](C(=O)N1CCC[C@H]1c1nc2cc(-c3c(C)cc(-c4ccc5nc([C@@H]6CCCN6C(=O)[C@@H](NC(=O)OC)C(C)C)[nH]c5c4)cc3C)ccc2[nH]1)C(C)C: ≥ 8.30

* * *

Test system: HCV (Ib) RNA replication
Assay Protocol: Cell-based luciferase reporter HCV (1b) RNA replication assay (replicon cell lines Huh-7 5.2 and ET)
Design: species or system Hepatitis C virus
Measurement Conditions: Hepatitis C virus, Huh-7, 96 h, HCV 1b genotype replicon, luciferase readout, 4 days incubation; read-out: EC50_1b
Each entry below carries its reported EC50.
Reported Endpoint: EC50

- COC(=O)NC(C(=O)N1C[C@H](O)C[C@H]1c1nc2ccc(-c3ccc(-c4ccc5[nH]c([C@@H]6C[C@@H](O)CN6C(=O)[C@@H](NC(=O)OC)C(C)C)nc5c4)cc3)cc2[nH]1)C(C)C (stereo in doubt): ≤ 5 nM
- COC(=O)N[C@H](C(=O)N1CCC[C@H]1c1nc2cc(-c3csc(-c4ccc5[nH]c([C@@H]6CCCN6C(=O)[C@@H](NC(=O)OC)C(C)C)nc5c4)c3)ccc2[nH]1)C(C)C: ≤ 5 nM
- COC(=O)N(C)[C@H](C(=O)N1C[C@@H](C)C[C@H]1c1nc2cc(-c3ccc(-c4ccc5[nH]c([C@@H]6C[C@H](C)CN6C(=O)[C@H](C(C)C)N(C)C(=O)OC)nc5c4)cc3)ccc2[nH]1)C(C)C: ≤ 5 nM
- COC(=O)N[C@H](C(=O)N1C[C@@H](C)C[C@H]1c1nc2ccc(-c3ccc(-c4ccc5nc([C@@H]6C[C@H](C)CN6C(=O)[C@@H](NC(=O)OC)C(C)C)n(C)c5c4)cc3)cc2n1C)C(C)C: ≤ 5 nM
- CC[C@@H](NC(C)=O)C(=O)N1CCC[C@H]1c1nc2cc(C#Cc3ccc4[nH]c([C@@H]5CCCN5C(=O)[C@@H](CC)NC(C)=O)nc4c3)ccc2[nH]1: 5 to 5000 nM
- COC(=O)N[C@H](C(=O)N1CCC[C@H]1c1nc2cc(-c3ccc(-c4ccc5nc([C@@H]6CCCN6C(=O)[C@@H](NC(=O)OC)C(C)C)[nH]c5c4)cc3C(F)(F)F)ccc2[nH]1)C(C)C: ≤ 5 nM
- CC(C)[C@H](NC(=O)O[C@H]1CCOC1)C(=O)N1CCC[C@H]1c1nc2cc(-c3ccc(-c4ccc5[nH]c([C@@H]6CCCN6C(=O)[C@@H](NC(=O)O[C@H]6CCOC6)C(C)C)nc5c4)s3)ccc2[nH]1: 5 to 5000 nM
- COC(=O)N[C@H](C(=O)N1CCC[C@H]1c1nc2c(F)cc(-c3ccc(-c4cc(F)c5nc([C@@H]6CCCN6C(=O)[C@@H](NC(=O)OC)C(C)C)[nH]c5c4)cc3)cc2[nH]1)C(C)C: ≤ 5 nM
- COC(=O)N[C@H](C(=O)N1CCC[C@H]1c1nc2cc(-c3ncc(-c4ccc5nc([C@@H]6CCCN6C(=O)[C@@H](NC(=O)OC)C(C)C)[nH]c5c4)c(OCc4ccccc4)n3)ccc2[nH]1)C(C)C: ≤ 5 nM

// data source = patent US8354419B2
